The measurements presented in this section are drawn from patent US10450368.

- target of assay: CH505.M5D8gp120293F
- experimental details: ELISA
measurement label: LogAUC
Lab note: jot down the number only; don't add units.

Answer with the recorded LogAUC of CH235 (antibody, V domains shown, also called CH235_4A) VH: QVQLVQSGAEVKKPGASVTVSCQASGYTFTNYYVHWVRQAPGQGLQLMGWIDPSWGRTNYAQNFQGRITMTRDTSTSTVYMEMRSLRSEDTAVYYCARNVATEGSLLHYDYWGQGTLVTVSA VL: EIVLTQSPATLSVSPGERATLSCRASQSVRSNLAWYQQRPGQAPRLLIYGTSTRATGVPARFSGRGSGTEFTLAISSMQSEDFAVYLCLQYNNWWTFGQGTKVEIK only. 11.4

Look up and report measured LogAUC for this entry: CH555 (antibody, V domains shown, also called CH235.10) VH: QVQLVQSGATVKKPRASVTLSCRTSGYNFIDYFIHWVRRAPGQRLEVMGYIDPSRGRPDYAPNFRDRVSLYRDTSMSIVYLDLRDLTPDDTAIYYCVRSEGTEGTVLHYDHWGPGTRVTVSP VL: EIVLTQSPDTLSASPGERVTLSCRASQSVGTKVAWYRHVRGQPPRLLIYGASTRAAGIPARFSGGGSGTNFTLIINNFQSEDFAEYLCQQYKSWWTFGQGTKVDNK 2.62
